A collection of molecules and their measured MIC
# System: Vibrio anguillarum
# procedure-text: In vitro antibacterial activity on pathogenic bacteria for fish (agar MIC, Test Example 1)
# Assay type: cell-based
# settings: Vibrio anguillarum, 20 h, Vibrio anguillarum strain NA8341, Mueller-Hinton agar, 25-30 °C, read-out: MIC (minimum growth-inhibition concentration)
assay-readout: MIC

O=C(O)c1cn(C2CC2)c2cc(N3CCN(CCO)CC3)c(F)cc2c1=O: 0.1 µg/mL
CN1CCN(c2cc3c(cc2F)c(=O)c(C(=O)O)cn3C2CC2)CC1: < 0.025 µg/mL
CCN1CCN(c2cc3c(cc2F)c(=O)c(C(=O)O)cn3C2CC2)CC1: 0.025 µg/mL
CCOC(=O)c1cn(C2CC2)c2cc(N3CCN(CC)CC3)c(F)cc2c1=O: 25 µg/mL
O=C(O)c1cn(C2CC2)c2cc(N3CCNCC3)c(F)cc2c1=O: < 0.025 µg/mL
